pKi for assorted molecules
MEASURED TARGET: human CB2 receptors (Homo sapiens)
Construct: expressed in transfected cells; host or cells: HEK293
Sequence (P34972 whole entry): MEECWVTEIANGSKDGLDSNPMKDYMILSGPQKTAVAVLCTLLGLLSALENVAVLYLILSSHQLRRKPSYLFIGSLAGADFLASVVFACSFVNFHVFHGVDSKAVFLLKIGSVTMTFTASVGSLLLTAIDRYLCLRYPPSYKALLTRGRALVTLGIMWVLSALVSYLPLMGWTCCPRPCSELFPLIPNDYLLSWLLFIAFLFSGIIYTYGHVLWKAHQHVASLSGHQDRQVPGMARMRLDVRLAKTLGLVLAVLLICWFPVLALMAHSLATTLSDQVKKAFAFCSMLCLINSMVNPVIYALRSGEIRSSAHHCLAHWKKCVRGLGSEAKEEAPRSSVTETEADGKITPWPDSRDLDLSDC
EXPERIMENTAL PROTOCOL: Human CB2 radioligand binding assay ([3H]CP-55,940 competition)
pKi: −log10 of the molar value.
MEASUREMENT LABEL: pKi

{"MOLECULE": "COc1ccc(C(F)(F)F)cc1C(=O)/N=c1\\cc(C2(C)CC2)n(C)n1C[C@H]1CCCO1 [Example 33]", "MEASUREMENT LABEL": "pKi", "REPORTED RESULT": 7.09}
{"MOLECULE": "CO[C@@H](C)COc1ccc(C(F)(F)F)cc1C(=O)/N=c1\\cc(C(C)(C)C)n(C)n1C[C@H]1CCCO1 [Example 28]", "MEASUREMENT LABEL": "pKi", "REPORTED RESULT": 7.00}
{"MOLECULE": "COc1ccc(C(F)(F)F)cc1C(=O)/N=c1\\cc(C(C)(C)C)n(C)n1CC1CCOC1 (centres unmarked) [Example 85]", "MEASUREMENT LABEL": "pKi", "REPORTED RESULT": 7.06}
{"MOLECULE": "COC(=O)c1cccc(C(=O)/N=c2\\cc(C(C)(C)C)n(C)n2C[C@H]2CCCO2)c1 [Example 115]", "MEASUREMENT LABEL": "pKi", "REPORTED RESULT": 7.60}
{"MOLECULE": "Cn1c(C(C)(C)C)c/c(=N\\C(=O)c2cc(OCCF)cc(C(F)(F)F)c2)n1C[C@H]1CCCO1 [Example 105]", "MEASUREMENT LABEL": "pKi", "REPORTED RESULT": 7.16}
{"MOLECULE": "COC(C)(C)CCOc1ccc(C(F)(F)F)cc1C(=O)/N=c1\\cc(C(C)(C)C)n(C)n1C[C@H]1CCCO1 [Example 20]", "MEASUREMENT LABEL": "pKi", "REPORTED RESULT": 7.60}
{"MOLECULE": "Cn1c(C(C)(C)C)c/c(=N\\C(=O)c2cc(O)cc(C(F)(F)F)c2)n1C[C@H]1CCCO1 [Example 103]", "MEASUREMENT LABEL": "pKi", "REPORTED RESULT": 7.80}
{"MOLECULE": "CCOCCCOc1ccc(C(F)(F)F)cc1C(=O)/N=c1\\cc(C(C)(C)C)n(C)n1C[C@H]1CCCO1 [Example 29]", "MEASUREMENT LABEL": "pKi", "REPORTED RESULT": 8.32}
{"MOLECULE": "CCOc1ccc(C(F)(F)F)cc1C(=O)/N=c1\\cc(C(C)(C)C)n(C)n1C[C@H]1CCCO1 [Example 14]", "MEASUREMENT LABEL": "pKi", "REPORTED RESULT": 7.46}
{"MOLECULE": "Cn1c(C(C)(C)C)c/c(=N\\C(=O)c2cc(C(F)(F)F)ccc2OCCF)n1C[C@H]1CCCO1 [Example 22]", "MEASUREMENT LABEL": "pKi", "REPORTED RESULT": 7.62}
{"MOLECULE": "CC(C)[C@@H](CO)NC(=O)/N=c1\\sc(C(C)(C)C)nn1C[C@H]1CCCO1 [Example 84]", "MEASUREMENT LABEL": "pKi", "REPORTED RESULT": 6.70}
{"MOLECULE": "Cn1c(C(C)(C)C)c/c(=N\\C(=O)c2cc(C(F)(F)F)ccc2N)n1C[C@H]1CCCO1 [Example 112]", "MEASUREMENT LABEL": "pKi", "REPORTED RESULT": 8.48}
{"MOLECULE": "Cn1c(C(C)(C)C)c/c(=N\\C(=O)c2cc(Br)cc(C(F)(F)F)c2)n1C[C@H]1CCCO1 [Example 104]", "MEASUREMENT LABEL": "pKi", "REPORTED RESULT": 7.34}
{"MOLECULE": "CC(CCc1ccccc1)NC(=O)/N=c1\\sc(C(C)(C)C)nn1C[C@H]1CCCO1 (some centres unmarked) [Example 79]", "MEASUREMENT LABEL": "pKi", "REPORTED RESULT": 7.49}
{"MOLECULE": "Cn1c(C(C)(C)C)c/c(=N\\C(=O)c2cc(C(F)(F)F)ccc2CCC(C)(C)O)n1C[C@H]1CCCO1 [Example 101]", "MEASUREMENT LABEL": "pKi", "REPORTED RESULT": 7.31}
{"MOLECULE": "COc1ccc(C(F)(F)F)cc1C(=O)/N=c1\\cc(C(C)(C)C)n(C)n1CC1CCCCO1 (centres unmarked) [Example 63]", "MEASUREMENT LABEL": "pKi", "REPORTED RESULT": 7.44}
{"MOLECULE": "Cn1c(C(C)(C)C)c/c(=N\\C(=O)c2cc(C(F)(F)F)ccc2OC(C)(C)C)n1C[C@H]1CCCO1 [Example 25]", "MEASUREMENT LABEL": "pKi", "REPORTED RESULT": 7.00}
{"MOLECULE": "CC(F)COc1ccc(C(F)(F)F)cc1C(=O)/N=c1\\cc(C(C)(C)C)n(C)n1C[C@H]1CCCO1 (some centres unmarked) [Example 40]", "MEASUREMENT LABEL": "pKi", "REPORTED RESULT": 7.49}
{"MOLECULE": "Cn1c(C(C)(C)C)c/c(=N\\C(=O)c2cc(C(F)(F)F)ccc2CC(=O)OC(C)(C)C)n1C[C@H]1CCCO1 [Example 111]", "MEASUREMENT LABEL": "pKi", "REPORTED RESULT": 7.85}
{"MOLECULE": "COc1ccc(C(F)(F)F)cc1C(=O)/N=c1\\cc(C(C)(C)C)n(C)n1C[C@H]1CCCO1 [Example 47]", "MEASUREMENT LABEL": "pKi", "REPORTED RESULT": 7.77}
{"MOLECULE": "Cn1c(C(C)(C)C)c/c(=N\\C(=O)c2cc(C(F)(F)F)ccc2NCCF)n1C[C@H]1CCCO1 [Example 39]", "MEASUREMENT LABEL": "pKi", "REPORTED RESULT": 8.05}
{"MOLECULE": "Cn1c(C(C)(C)C)c/c(=N\\C(=O)c2cc(F)cc(F)c2F)n1C[C@H]1CCCO1 [Example 51]", "MEASUREMENT LABEL": "pKi", "REPORTED RESULT": 7.17}
{"MOLECULE": "Cn1c(C(C)(C)C)c/c(=N\\C(=O)c2cc(C(F)(F)F)ccc2Br)n1C[C@H]1CCCO1 [Example 88]", "MEASUREMENT LABEL": "pKi", "REPORTED RESULT": 7.70}
{"MOLECULE": "COc1ccc(Cl)cc1C(=O)/N=c1\\sc(C2(C)CC(F)(F)C2(F)F)nn1C[C@H]1CCCO1 (some centres unmarked) [Example 7]", "MEASUREMENT LABEL": "pKi", "REPORTED RESULT": 7.42}
{"MOLECULE": "Cn1c(C(C)(C)C)c/c(=N\\C(=O)c2cc(Br)ccc2F)n1C[C@H]1CCCO1 [Example 132]", "MEASUREMENT LABEL": "pKi", "REPORTED RESULT": 7.82}
{"MOLECULE": "Cn1c(C(C)(C)C)c/c(=N\\C(=O)c2cc(C(F)(F)F)ccc2OCC2(O)CCC2)n1C[C@H]1CCCO1 [Example 44]", "MEASUREMENT LABEL": "pKi", "REPORTED RESULT": 7.77}
{"MOLECULE": "Cn1c(C2(C)CC2)c/c(=N\\C(=O)c2cc(C(F)(F)F)ccc2OCC2(O)CCC2)n1C[C@H]1CCCO1 [Example 102]", "MEASUREMENT LABEL": "pKi", "REPORTED RESULT": 7.68}
{"MOLECULE": "COc1ccc(C(F)(F)F)cc1C(=O)/N=c1\\cc(C(C)(C)C)n(C)n1CC1CC[C@@H](C)O1 (mixture of isomers) [Example 64]", "MEASUREMENT LABEL": "pKi", "REPORTED RESULT": 7.52}
{"MOLECULE": "Cn1c(C(C)(C)C)c/c(=N\\C(=O)c2cc(C(F)(F)F)ccc2OCC2CC(=NO)C2)n1C[C@H]1CCCO1 (some centres unmarked) [Example 119]", "MEASUREMENT LABEL": "pKi", "REPORTED RESULT": 7.15}
{"MOLECULE": "CN(C)S(=O)(=O)Nc1ccc(C(F)(F)F)cc1C(=O)/N=c1\\cc(C(C)(C)C)n(C)n1C[C@H]1CCCO1 [Example 121]", "MEASUREMENT LABEL": "pKi", "REPORTED RESULT": 7.28}
{"MOLECULE": "COc1ccc(Cl)cc1C(=O)/N=c1\\cc(C(C)(C)C)n(C)n1C[C@H]1CCCO1 [Example 45]", "MEASUREMENT LABEL": "pKi", "REPORTED RESULT": 8.09}
{"MOLECULE": "COC/C=C/c1ccc(C(F)(F)F)cc1C(=O)/N=c1\\cc(C(C)(C)C)n(C)n1C[C@H]1CCCO1 [Example 89]", "MEASUREMENT LABEL": "pKi", "REPORTED RESULT": 8.01}
